pKi: −log10 of the molar value.
The next entries give measured pKi for Mu-type opioid receptor (Rattus norvegicus, UniProt P33535).
recorded_metric: pKi

>>> assay_result("Cc1cc(O)cc(C)c1C[C@H](N)C(=O)N1CCc2ccccc2C1C(=O)N[C@@H](Cc1c[nH]c2ccccc12)C(=O)N[C@@H](Cc1ccccc1)[C@H](O)C(N)=O (stereo partly drawn)")
8.52
>>> assay_result("NC(=O)[C@H](Cc1ccccc1)NC(=O)[C@@H](O)[C@@H](Cc1ccccc1)NC(=O)[C@@H]1CCCN1C(=O)[C@@H](N)Cc1ccc(O)cc1")
6.69
>>> assay_result("NC(=O)[C@H](Cc1ccccc1)NC(=O)[C@H](O)[C@@H](Cc1ccccc1)NC(=O)[C@@H]1CCCN1C(=O)[C@@H](N)Cc1ccc(O)cc1")
5.68
